Test system: A498 renal
EXPERIMENTAL_DETAILS: NCI tumour cell line growth inhibition, 48 h
METRIC_NAME: TGI

>>> observed_result("CO/C(=N\\N=C\\c1ccc(OC)cc1OC)c1ccncc1")
"> 10 µM"
>>> observed_result("O=c1n(-c2ccccc2)c(=O)n2n1C1CCC2CC1")
"> 100 µM"
>>> observed_result("COc1ccc(/C(Cl)=C(\\C=O)c2ccc(Br)cc2)cc1OC")
"> 100 µM"
>>> observed_result("Cc1[nH]nc2c1N=C(c1ccccc1F)c1cc(C#N)ccc1N2")
"1.08 µM"
>>> observed_result("CCOC(=O)c1nc2ccc(Cl)cc2c2c1CCO2")
"> 100 µM"
>>> observed_result("O=C1Nc2ccccc2[C@]12C[C@H]2c1ccccn1")
"> 100 µM"
>>> observed_result("O=C(O)c1ccc(-c2ccc(C(=O)O)cc2I)c(I)c1")
"> 100 µM"
>>> observed_result("OCCSCc1cc2c(O)c(c1)Cc1cc(CSCCO)cc(c1O)Cc1cc(CSCCO)cc(c1O)Cc1cc(CSCCO)cc(c1O)C2")
"17.3 µM"
>>> observed_result("C=CC[Se]C(=O)Cc1c(C)n(C(=O)c2ccc(Cl)cc2)c2ccc(OC)cc12")
"4.25 µM"
>>> observed_result("NC(N)=N/N=C/c1cccc(Cl)c1Cl")
"25.6 µM"
>>> observed_result("COC1=CC(C2c3cc4c(cc3[C@@H](Nc3ccc([N+](=O)[O-])cc3)C3COC(=O)[C@H]23)OCO4)=CC(=O)C1=O (stereo partly specified)")
"6.23 µM"

---

Tested on: COLO 205 colon
EXPERIMENTAL_DETAILS: NCI tumour cell line growth inhibition, 48 h
Collected GI50 values appear next to each entry.
METRIC_NAME: GI50

>>> observed_result("CCCCCCNC(=O)Oc1ccc(/C(=C(\\C)c2ccccc2)c2ccc(OCCN3CCCCC3)cc2)cc1")
"1.78 µM"
>>> observed_result("CCCCCC(=O)OCC(=O)O[C@@H]1C[C@]2(C(C)C)O[C@@]1(C)[C@@H]1CC[C@@H](C)[C@H]1[C@@H]2OC(=O)/C=C/c1ccccc1")
"> 61.3 µM"
>>> observed_result("COc1ccc2c(c1OC)-c1c(c3ccc([N+](=O)[O-])cc3c(=O)n1CCCN=[N+]=[N-])C2=O")
"> 100 µM"
>>> observed_result("C#CCOc1ccc2ncnc(Nc3ccc(NC(=O)CCl)cc3)c2c1")
"13.8 µM"

---

System: UO-31 renal
EXPERIMENTAL_DETAILS: NCI tumour cell line growth inhibition, 48 h
METRIC_NAME: TGI

>>> observed_result("CCCCN(CCCC)CC(C)(C)C(O)c1ccc(OC)c2ccccc12 (configuration not stated)")
"17.4 µM"
>>> observed_result("c1ccc([C@@H]2N[C@@]3(CO[Si](c4ccccc4)(c4ccccc4)c4ccccc4)CC[C@H]4CN[C@@H]2[C@H]43)cc1")
"22.8 µM"
>>> observed_result("COc1ccc(-c2onc(-c3c(C)cc(C)cc3C)c2C2=NCCCN2)cc1")
"> 100 µM"
>>> observed_result("O=C1Nc2ccccc2[C@]12C[C@H]2c1ccccn1")
"> 100 µM"
>>> observed_result("CO/C(=N\\N=C\\c1ccc(OC)cc1OC)c1ccncc1")
"> 10 µM"
>>> observed_result("CN(C)CCOc1nc2c3cccnc3cc(-c3cccc(Cl)c3)c2c2ncccc12")
"2.73 µM"
>>> observed_result("CCCCCCNC(=O)Oc1ccc(/C(=C(\\C)c2ccccc2)c2ccc(OCCN3CCCCC3)cc2)cc1")
"2.86 µM"
>>> observed_result("O=C(O)c1ccc(N=Nc2cc(S(=O)(=O)O)c3cccnc3c2O)cc1")
"> 100 µM"
>>> observed_result("COc1ccc(CCNCc2cccc(OC)c2OC)cc1OC")
"> 100 µM"
>>> observed_result("Oc1ccc(Br)cc1/C=N/NC(=S)NC12CC3CC(CC(C3)C1)C2")
"2.78 µM"
>>> observed_result("Nc1nc(Cl)cc(NCC2(CO)CCC2)n1")
"> 100 µM"
>>> observed_result("CO[C@@](c1ccccc1)(c1nc(C#N)c(N)o1)C(F)(F)F")
"> 100 µM"
>>> observed_result("CCCCCC(=O)OCC(=O)O[C@@H]1C[C@]2(C(C)C)O[C@@]1(C)[C@@H]1CC[C@@H](C)[C@H]1[C@@H]2OC(=O)/C=C/c1ccccc1")
"0.254 µM"
>>> observed_result("COc1cc2nc(-c3ccc(-n4cncc4-c4ccc(N)cc4)cc3)sc2c(OC)c1OC")
"6.87 µM"
>>> observed_result("N#CC1=C(C#N)/C(=C(\\C#N)C(C#N)C#N)N=C1N")
"> 100 µM"
>>> observed_result("CN(/N=C/c1ccnc2ccccc12)c1ccc([N+](=O)[O-])cc1[N+](=O)[O-]")
"> 100 µM"
>>> observed_result("COc1ccc(NC(=O)c2sc3nc(C)c(C(O)c4ccc(OC)cc4)cc3c2N)cc1 (configuration not stated)")
"> 50 µM"
>>> observed_result("CCCCOP(=O)(OCCCC)/C(C#N)=C/c1ccco1")
"> 100 µM"
>>> observed_result("O=C(N/C(=C\\c1ccc(Br)cc1)c1nc2ccccc2s1)c1ccccc1")
"> 100 µM"
>>> observed_result("COc1cccc(-c2cccc(SC)n2)n1")
"> 100 µM"
>>> observed_result("C/C(=N\\NC(=O)/C(C#N)=C\\c1ccc(N(CCC#N)CCC#N)cc1)c1ccccc1")
"> 10 µM"
>>> observed_result("Cc1[nH]nc2c1N=C(c1ccccc1F)c1cc(C#N)ccc1N2")
"4.01 µM"

---

Collected TGI values appear next to each entry.
Test system: A498 renal
EXPERIMENTAL_DETAILS: NCI tumour cell line growth inhibition, 48 h
METRIC_NAME: TGI

>>> observed_result("C=C1CC2(OC1=O)c1ccccc1C=Cc1ccccc12")
"25 µM"
>>> observed_result("COc1ccc(/C=C/c2nc(=S)[nH][nH]2)cc1")
"> 100 µM"
>>> observed_result("C[C@]12CC(c3ccccc3O1)C(C#N)C(=O)N2 (stereo not given in full)")
"> 100 µM"
>>> observed_result("CCCCOP(=O)(OCCCC)/C(C#N)=C/c1ccco1")
"> 100 µM"
>>> observed_result("Oc1ccc(/C=N/Nc2nc3ccccc3s2)c(O)c1")
"36.8 µM"

---

Tested on: BT-549 breast
EXPERIMENTAL_DETAILS: NCI tumour cell line growth inhibition, 48 h; in the data active means GI50 below about 0.43 µM; inactive means the rest
Classes used: t (active), f (inactive)

>>> category("COC(=O)c1c2c(c(C)[n+]([O-])c1C)C(=O)C(NCc1cccc(OC)c1)=CC2=O")
"f"
>>> category("COc1ccccc1CNC(=O)C1c2ccccc2C(=O)N(CC(C)C)C1c1cccs1 (stereo unspecified)")
"f"
>>> category("O=C(Nc1cccc2cccnc12)c1ccc(N2C(=O)[C@@H]3[C@H](C2=O)[C@@H]2C=C[C@H]3C2)cc1")
"f"
>>> category("C[C@@]1(c2ncncc2F)NC(=O)c2cc(-c3cn[nH]c3)ccc21")
"f"
>>> category("NC(N)=N/N=C/c1cccc(Cl)c1Cl")
"f"
>>> category("Cc1c2ncccc2nc2[nH]c3ccc(OCCN(C)C)cc3c12")
"f"
>>> category("Cc1[nH]nc2c1N=C(c1ccccc1F)c1cc(C#N)ccc1N2")
"f"
>>> category("CCn1c(-c2nonc2N)nc2c(C#CC(C)(C)O)nc(O[C@@H](CN)c3ccccc3)cc21")
"t"
>>> category("CC[C@H](Nc1nc(N)nc(N)c1Cl)c1nc2cccc(NCc3ccc(C(=O)NO)cc3)c2c(=O)n1-c1ccccc1")
"f"
>>> category("CCCCCC(=O)OCC(=O)O[C@@H]1C[C@]2(C(C)C)O[C@@]1(C)[C@@H]1CC[C@@H](C)[C@H]1[C@@H]2OC(=O)/C=C/c1ccccc1")
"t"
>>> category("COC(=O)[C@@H](Cc1c[nH]c2ccccc12)NC(=O)/C=C/c1ccccc1")
"f"

---

Test system: NCI-H226 lung
EXPERIMENTAL_DETAILS: NCI tumour cell line growth inhibition, 48 h
Collected TGI values appear next to each entry.
METRIC_NAME: TGI

>>> observed_result("BrC(Br)(Br)c1cnc2ccccc2n1")
"8.38 µM"
>>> observed_result("COc1ccc(C2SC(N)=Nc3c2c(C)nn3C(=O)c2ccc(Cl)cc2)cc1 (stereo unspecified)")
"> 10 µM"
>>> observed_result("Cc1cccc2c1Oc1cc(Cl)ccc1C2NC(=O)CN(C)C (stereo unspecified)")
"> 100 µM"
>>> observed_result("Oc1ccc(Br)cc1/C=N/NC(=S)NC12CC3CC(CC(C3)C1)C2")
"4.8 µM"
>>> observed_result("O=c1n(-c2ccccc2)c(=O)n2n1C1CCC2CC1")
"> 100 µM"
>>> observed_result("COC(=O)[C@@H](Cc1c[nH]c2ccccc12)NC(=O)/C=C/c1ccccc1")
"> 100 µM"
>>> observed_result("COc1ccc(Nc2nc(N)c(C(=O)c3ccc(OC)cc3)s2)cc1")
"75.8 µM"
>>> observed_result("O=[N+]([O-])c1cc(Cl)cc2c1nc(NCCO)c1ccccc12")
"> 80.2 µM"
>>> observed_result("CCOC(=O)CNC(=O)CCCn1c(=O)c2c3ccccc3n(C)c2n2nnc(-c3ccccc3)c12")
"> 50 µM"
>>> observed_result("O=c1oc2cc(O)ccc2c(O)c1C(c1ccccn1)c1c(O)c2ccc(O)cc2oc1=O")
"> 100 µM"
>>> observed_result("C#CCCOC1(OC)N=NC(C)(C)O1 (stereo unspecified)")
"> 100 µM"
